Cited source: ChEMBL document CHEMBL2046298

# protocolNotes: Plasma concentration in CD-1 mouse at 10 mg/kg, po measured at 4 hrs
# Type: ADME, organism-based
# Parameters: dose 10 mg/kg, route oral
property: concentration at 4 h (ng/mL)

(A) COc1cc(N2CCC(CC(=O)N3CCN(C)CC3)CC2)ccc1Nc1nc(NC2CCCCC2)c2[nH]cnc2n1
(B) COc1cc(N2CCC(CC(=O)N3CCOCC3)CC2)ccc1Nc1nc(NC2CCCCC2)c2nc[nH]c2n1
I need your help: which of the pair A , B has higher concentration at 4 h? In your reply, give the label of the chosen option.
A
(A: 180 ng/mL, B: 97 ng/mL)
